# target: VAV1 (Homo sapiens, UniProt P15498+Q96SW2)
# Construct: A heterozygous VAV1 C-terminal HiBiT knock-in pool was generated at Monte Rosa Therapeutics from a clonal Jurkat cell; endogenous in cells; host or cells: Jurkat clone stably expressing LgBiT, homozygous GSPT1-G575N; heterozygous VAV1-HiBiT knock-in pool
# method: VAV1 degradation activity, VAV1-HiBiT knock-in Jurkat luminescence assay (Example A, Table 1)
# Format: cell-based
# reported conditions: Jurkat, VAV1-HiBiT knock-in Jurkat cells, luminescence read at 6 and 24 hours; read-out: VAV1 Dmax %, class
In this section we review reported Dmax values for a set of compounds.

// known answers, use as guide
> print(dat)
                                   compound                                    target  measurement.type  experimental.result
1  O=C1CCC(c2cccc(-c3cnc(Cc4ncco4)c(F)c3)c2Cl)C(=O)N1 (centres unmarked)  VAV1 (Homo sapiens, UniProt P15498+Q96SW2)              Dmax                < 60%
2  O=C1CCC(c2cccc(-c3ccc(-n4ccccc4=O)c(F)c3)c2Cl)C(=O)N1 (centres unmarked)  VAV1 (Homo sapiens, UniProt P15498+Q96SW2)              Dmax                > 90%
3  Cn1ccc(COc2ccc(-c3cccc(C4CCC(=O)NC4=O)c3Cl)cc2)n1 (centres unmarked)  VAV1 (Homo sapiens, UniProt P15498+Q96SW2)              Dmax                > 90%
4  O=C1CCC(c2cccc(-c3ccc(Cc4cccs4)cc3)c2Cl)C(=O)N1 (centres unmarked)  VAV1 (Homo sapiens, UniProt P15498+Q96SW2)              Dmax                > 90%
5  O=C1CCC(c2cccc(-c3ccc(N4C(=O)COCC45CC5)cc3)c2Cl)C(=O)N1 (centres unmarked)  VAV1 (Homo sapiens, UniProt P15498+Q96SW2)              Dmax                > 90%
6  O=C1CCC(c2cccc(-c3ccc(Cc4ncccn4)cc3)c2Cl)C(=O)N1 (centres unmarked)  VAV1 (Homo sapiens, UniProt P15498+Q96SW2)              Dmax                > 90%

IN: # query: Dmax of entry Nc1ccc(-c2cccc(C3CCC(=O)NC3=O)c2Cl)cc1OC(F)F (centres unmarked)
OUT: 60 to 90%

IN: Please look up its Dmax: O=C1CCC(c2cccc(-c3ccc(N4CCN(CC(F)F)CC4=O)cc3)c2Cl)C(=O)N1 (centres unmarked)
OUT: > 90%

###

Recorded DC50 values for a group of compounds are listed next.
# target: VAV1 (Homo sapiens, UniProt P15498+Q96SW2)
# Construct: A heterozygous VAV1 C-terminal HiBiT knock-in pool was generated at Monte Rosa Therapeutics from a clonal Jurkat cell; endogenous in cells; host or cells: Jurkat clone stably expressing LgBiT, homozygous GSPT1-G575N; heterozygous VAV1-HiBiT knock-in pool
# method: VAV1 degradation activity, VAV1-HiBiT knock-in Jurkat luminescence assay (Example A, Table 1)
# Format: cell-based
# reported conditions: VAV1-HiBiT knock-in Jurkat cells, luminescence read at 6 and 24 hours; read-out: VAV1 DC50
# Protocol: Cells were plated at 10,000 cells per well using Multiflo (BioTek) or Multi Drop Combi (Thermo Fisher) in 384-well white solid bottom plates (Corning, 3570BC) in 25 ul volume in RPMI 1640 media (Thermo Fischer, 22400105) containing 10% FBS (Corning, 35-075-CV), 1% Penicillin/Streptomycin (ThermoFisher Scientific, 15140-122), and 1% Endurazine (Nano-Glo Endurazine Live Cell Substrate (Promega, N2571)). Cells were incubated for ˜16 hours at 37° C., 5% CO2. […]
Reply with just the number (in nM).

> print(dat)
                                   compound  measurement.type  experimental.result
1  COc1ccnc(Cc2ccc(-c3cccc(C4CCC(=O)NC4=O)c3Cl)cc2)n1 (centres unmarked) [Compound 421]              DC50                 6.96
2  CN1CCN(Cc2ccc(-c3cccc(C4CCC(=O)NC4=O)c3Cl)cc2)C(=O)C1 (centres unmarked) [Compound 277]              DC50                  647
3  O=C1CCC(c2cccc(-c3ccc(N4CCCCC4C(F)F)cc3)c2Cl)C(=O)N1 (centres unmarked) [Compound 469]              DC50                  266
4  Cn1cnc(Cn2ncc3cc(-c4cccc(C5CCC(=O)NC5=O)c4Cl)ccc32)c1 (centres unmarked) [Compound 397]              DC50                 3.01

IN: Find the recorded DC50 belonging to CCNc1ccc(-c2cccc(C3CCC(=O)NC3=O)c2Cl)cc1 (centres unmarked) [Compound 115] and report it.
OUT: 125

IN: Fill in the blank: the reported DC50 of O=C1CCC(c2cccc(-c3ccc(Cc4ccco4)cc3)c2Cl)C(=O)N1 (centres unmarked) [Compound 373] is ____.
OUT: 25.6

IN: Given Cc1cccc(=O)n1-c1ccc(-c2cccc(C3CCC(=O)NC3=O)c2Cl)cn1 (centres unmarked) [Compound 353] , state its recorded DC50.
OUT: 62.1

IN: Any idea what its DC50 is? The compound is O=C1CCC(c2cccc(-c3ccc(-n4ccccc4=O)cc3)c2Cl)C(=O)N1 (centres unmarked) [Compound 185]
OUT: 7

IN: Would you kindly share the measured DC50 for O=C1CCC(c2cccc(-c3ccc(N4C(=O)OCC45CCC5)nc3)c2Cl)C(=O)N1 (centres unmarked) [Compound 357] ?
OUT: 35.8

IN: Find the recorded DC50 belonging to O=C1CCC(c2cccc(-c3cccc(COC4CCOC4)c3)c2Cl)C(=O)N1 (centres unmarked) [Compound 190] and report it.
OUT: 3330

###

# target: VAV1 (Homo sapiens, UniProt P15498+Q96SW2)
# Construct: A heterozygous VAV1 C-terminal HiBiT knock-in pool was generated at Monte Rosa Therapeutics from a clonal Jurkat cell; endogenous in cells; host or cells: Jurkat clone stably expressing LgBiT, homozygous GSPT1-G575N; heterozygous VAV1-HiBiT knock-in pool
# method: VAV1 degradation activity, VAV1-HiBiT knock-in Jurkat luminescence assay (Example A, Table 1)
# Assay type: cell-based
# reported conditions: Jurkat, VAV1-HiBiT knock-in Jurkat cells, luminescence read at 6 and 24 hours; read-out: VAV1 Dmax %, class
The compounds listed here are annotated with their Dmax.

> print(dat)
                                   compound                                    target  experimental.result
1  O=C1CCC(c2cccc(-c3cnc(-n4ccccc4=O)nc3)c2Cl)C(=O)N1 (stereo not drawn)  VAV1 (Homo sapiens, UniProt P15498+Q96SW2)                < 60%
2  O=C1CCC(c2cccc(-c3ccc(-n4cccnc4=O)c(F)c3)c2Cl)C(=O)N1 (stereo not drawn)  VAV1 (Homo sapiens, UniProt P15498+Q96SW2)                > 90%
3  O=C1CCC(c2cccc(-c3ccc(N4CCCOC4=O)cc3)c2Cl)C(=O)N1 (stereo not drawn)  VAV1 (Homo sapiens, UniProt P15498+Q96SW2)                > 90%
4  O=C1CCC(c2cccc(-c3ccc(N4CCCCC4=O)c(F)c3)c2Cl)C(=O)N1 (stereo not drawn)  VAV1 (Homo sapiens, UniProt P15498+Q96SW2)                > 90%
5  CN1CCN(c2ccc(-c3cccc(C4CCC(=O)NC4=O)c3Cl)cc2)C(=O)C1 (stereo not drawn)  VAV1 (Homo sapiens, UniProt P15498+Q96SW2)                > 90%
6  O=C1CCC(c2cccc(-c3ccc(N4CCCOC4=O)c(F)c3)c2Cl)C(=O)N1 (stereo not drawn)  VAV1 (Homo sapiens, UniProt P15498+Q96SW2)                > 90%
7  Cn1ccc(C(F)(F)F)c(-c2ccc(-c3cccc(C4CCC(=O)NC4=O)c3Cl)cc2)c1=O (stereo not drawn)  VAV1 (Homo sapiens, UniProt P15498+Q96SW2)                > 90%
8  O=C1CCC(c2cccc(-c3ccc(C(=O)N4CCC(F)(F)C4)cc3)c2Cl)C(=O)N1 (stereo not drawn)  VAV1 (Homo sapiens, UniProt P15498+Q96SW2)            60 to 90%

IN: # input compound: O=C1CCC(c2cccc(-c3ccc(CN4CCOC4=O)cc3)c2Cl)C(=O)N1 (stereo not drawn) ; wanted: its Dmax
OUT: 60 to 90%

IN: May I ask what Dmax has been recorded for Cn1ccc(CCc2ccc(-c3cccc(C4CCC(=O)NC4=O)c3Cl)cc2)n1 (stereo not drawn) ?
OUT: > 90%

IN: Which Dmax value belongs to O=C1CCC(c2cccc(-c3ccc(Cn4cccnc4=O)nc3)c2Cl)C(=O)N1 (stereo not drawn) ?
OUT: < 60%

IN: # lookup: Dmax of Nc1ccc(-c2cccc(C3CCC(=O)NC3=O)c2Cl)cc1 (stereo not drawn)
OUT: 60 to 90%

IN: Which Dmax value is on record for O=C1CCC(c2cccc(-c3ccc(CN4CC5CC5C4=O)cc3)c2Cl)C(=O)N1 (stereo not drawn) ?
OUT: > 90%

IN: Query: Dmax; subject: O=C1CCC(c2cccc(-c3ccc(OCc4ccncc4)cc3)c2Cl)C(=O)N1 (stereo not drawn)
OUT: > 90%

IN: GET /values?readout=Dmax&item= COCc1ccn(C)c(=O)c1-c1ccc(-c2cccc(C3CCC(=O)NC3=O)c2Cl)cc1 (stereo not drawn)
OUT: > 90%

IN: // Dmax lookup, key: CC1CCN(c2ccc(-c3cccc(C4CCC(=O)NC4=O)c3Cl)cc2)C1=O (stereo not drawn)
OUT: 60 to 90%

IN: Which measured Dmax value corresponds to CN1CC(=O)N(c2ccc(-c3cccc(C4CCC(=O)NC4=O)c3Cl)cn2)CC12CC2 (stereo not drawn) ?
OUT: < 60%

IN: Which Dmax value is on record for O=C1CCC(c2cccc(-c3ccc(CC(=O)N4CCCC4)cc3)c2Cl)C(=O)N1 (stereo not drawn) ?
OUT: > 90%

IN: I have this compound here, O=C1CCC(c2cccc(-c3cnc(N4C(=O)CCC45CC5)c(F)c3)c2Cl)C(=O)N1 (stereo not drawn) , and I need its recorded Dmax.
OUT: 60 to 90%

IN: Fill in: Dmax of O=C1CCC(c2cccc(-c3ccc(N4CCn5ccnc5C4=O)cc3)c2Cl)C(=O)N1 (stereo not drawn) is ___
OUT: 60 to 90%

IN: Name the reported Dmax value associated with the compound CC1(C)CCC(=O)N(Cc2ccc(-c3cccc(C4CCC(=O)NC4=O)c3Cl)cc2)C1 (stereo not drawn)
OUT: > 90%

IN: Endpoint output: Dmax of O=C1CCC(c2cccc(-c3ccc(Cn4ccccc4=O)cc3)c2)C(=O)N1 (stereo not drawn) . Value?
OUT: 60 to 90%
